System: NCI-H226 lung
run_description: NCI tumour cell line growth inhibition, 48 h
Quick list: GI50 per entry.

For orientation, consider the following solved cases.
# compound, parameter, measured_result
rows = [
    ("C=C1C(=O)O[C@H]2[C@H]1CC/C(Cn1cc(CNC(=O)c3cc4ccccc4[nH]3)nn1)=C\\CC[C@@]1(C)O[C@@H]21", "GI50", "2.57 µM"),
    ("COc1ccc(/C=C2\\CN(Cc3cn(CCCNc4ccnc5cc(Cl)ccc45)nn3)C/C(=C\\c3ccc(OC)cc3)C2=O)cc1", "GI50", "25.5 µM"),
    ("COc1ccc(/C=C2\\CC(C)CC3C2=NN(C(C)=O)C3c2ccc(OC)c(OC)c2)cc1OC (configuration not stated)", "GI50", "18.8 µM"),
]

Reported GI50 for "O=C1/C(=C/c2ccc([N+](=O)[O-])s2)Oc2ccc(Cl)cc21" : what is it?
1.39 µM

Reported GI50 for "CNCc1ccc(C)c(NC(=O)c2ccc(Nc3nc(-c4ccccc4)c4ccccc4n3)cc2)c1" : what is it?
1.98 µM

Reported GI50 for "COc1ccc(N2CCN(CC(=O)N3CCN(c4nnc(-c5ccc(Cl)cc5)c(-c5ccc(Cl)cc5)n4)CC3)CC2)cc1" : what is it?
> 100 µM

Reported GI50 for "COC(=O)c1cc2c([nH]c3ccccc32)c(-c2nc3cc(N(S(=O)(=O)c4ccc(C)cc4)S(=O)(=O)c4ccc(C)cc4)c(OC)cc3cc2CO)n1" : what is it?
> 100 µM

---

Test system: K-562 leukemia
run_description: NCI tumour cell line growth inhibition, 48 h
parameter: TGI

Reported TGI for "COc1cc(OC)c(-c2oc3ccccc3c(=O)c2O)c(OC)c1" : what is it?
> 100 µM

---

Quick list: TGI per entry.
Tested on: SF-295 CNS
run_description: NCI tumour cell line growth inhibition, 48 h

For orientation, consider the following solved cases.
# compound, TGI
rows = [
    ("COc1cc(OC)cc(N(C)Cc2cnc3nc(N)nc(N)c3c2C)c1", "> 100 µM"),
    ("COC(=O)c1cc2c([nH]c3ccccc32)c(-c2nc3cc(N(S(=O)(=O)c4ccc(C)cc4)S(=O)(=O)c4ccc(C)cc4)c(OC)cc3cc2CO)n1", "> 100 µM"),
    ("CCOc1c(OC)cc(CNNc2nccs2)cc1OC", "> 100 µM"),
    ("Cn1c(N)cc(=O)nc1N", "> 100 µM"),
    ("CCc1cccc(C(C)C)c1C1C(=O)C(=O)N(c2nc3ccccc3s2)C(=O)C1=O", "> 100 µM"),
]

Reported TGI for CC(C)(O)C1CC(=O)C(C)(C2C(O)CC3(C)C4CC=C5C(CCC(O)C5(C)C)C4(C)C(=O)CC23C)O1 (stereo not drawn) : what is it?
> 100 µM

Reported TGI for "O=c1[nH]c2cccccc-2c1-c1nc2ccccc2[nH]1" : what is it?
> 100 µM

Reported TGI for COc1ccccc1C1C(Cl)C(=O)N1NC(=O)Cc1ccccc1 (stereo not drawn) : what is it?
> 100 µM

---

Test system: HL-60(TB) leukemia
run_description: NCI tumour cell line growth inhibition, 48 h
Quick list: TGI per entry.

For orientation, consider the following solved cases.
# compound, parameter, measured_result
records = [
    ("O=c1c2ccccc2nc(-c2ccccc2Cl)n1NC1OC(CO)C(O)C(O)C1O (stereo not drawn)", "TGI", "> 100 µM"),
    ("CC(C)(C)C(=O)Cc1cc2c(cc1C(=O)O)S(=O)(=O)NC(C(C)(C)C)=C2", "TGI", "> 100 µM"),
]

Consider the record given below.
Reported TGI for "COCN1C(=O)[C@@H]2C[C@@H](OC/C=C/CBr)CN2C(=O)c2ccccc21" : what is it?
> 100 µM
